# system_name: Thrombin (Homo sapiens, UniProt P00734)
# measurement_description: In vitro inhibition of thrombin (Ki according to Dixon)
# Type: biochemical
# test_context: summary table
pKi: −log10 of the molar value. Where a name gives a salt, the structure may show the parent alone.
Kindly supply the reported pKi values for the records listed here.

molecule	recorded_metric	result
CN(CC(=O)NCc1ccc(NC(=N)N)cc1)C(=O)C(CO)NS(=O)(=O)Cc1ccccc1 (stereo not drawn) [WX-538]	pKi	< 4.00
N=C(N)Nc1ccc(CNC(=O)CNC(=O)[C@@H](CO)NS(=O)(=O)Cc2ccccc2)cc1 [WX-508, hydrochloride]	pKi	< 3.46

Proceed to the following item.
Query: pKi; subject: N=C(N)Nc1ccc(CNC(=O)[C@H](CCc2ccccc2)NC(=O)C(CO)NS(=O)(=O)Cc2ccccc2)cc1 (stereo partly drawn) [WX-550, hydrochloride]
< 4.30

====

Kindly supply the reported concentration at 60 min values for the records listed here.
# measurement_description: Oral bioavailability and plasma kinetics in mice (serum concentration)
# Type: in vivo, Balb/c mice
# test_context: female, Balb/c, mouse, serum, po, 30 mg/kg, 30 mg/kg oral, sample at 60 minutes, read-out: c in the serum 1st analysis
Where a name gives a salt, the structure may show the parent alone.
Numbers only, in ng/mL.

Some solved entries appear below for comparison.
compound	concentration at 60 min / ng/mL
CC1(C)C2CCC1(CS(=O)(=O)NC(CO)C(=O)NCC(=O)NCc1ccc(NC(=N)N)cc1)C(=O)C2 (stereo not shown) [WX-C298, hydrochloride]	100
C[C@H](NC(=O)C(CO)NS(=O)(=O)Cc1ccccc1)C(=O)NCc1ccc(NC(=N)N)cc1 (stereo partly shown) [WX-532, hydrochloride]	900
N=C(N)Nc1ccc(CNC(=O)CNC(=O)C(CO)NS(=O)(=O)Cc2cccc(Cl)c2)cc1 (stereo not shown) [WX-C318, hydrochloride]	200

Proceed to the following item.
Query: concentration at 60 min; subject: N=C(N)Nc1ccc(CNC(=O)CNC(=O)C(CO)NS(=O)(=O)Cc2cccc([N+](=O)[O-])c2)cc1 (stereo not shown) [WX-C316, hydrochloride]
400

====

# measurement_description: Oral bioavailability and plasma kinetics in mice (serum concentration)
# Assay type: in vivo, Balb/c mice
# test_context: female, Balb/c, mouse, serum, po, 300 mg/kg, 300 mg/kg oral, sample at 40 minutes, read-out: c in the serum 2nd analysis
Where a name gives a salt, the structure may show the parent alone.
Kindly supply the reported concentration at 40 min values for the records listed here.
Give bare numbers, in ng/mL.

Some solved entries appear below for comparison.
molecule	units_label	quantitative_result
N=C(N)Nc1ccc(CNC(=O)CNC(=O)C(CO)NS(=O)(=O)Cc2cccc([N+](=O)[O-])c2)cc1 (stereo not shown) [WX-C316, hydrochloride]	ng/mL	32100
N=C(N)Nc1ccc(CNC(=O)CNC(=O)C(CO)NS(=O)(=O)Cc2cccc(Cl)c2)cc1 (stereo not shown) [WX-C318, hydrochloride]	ng/mL	6200
C[C@H](NC(=O)C(CO)NS(=O)(=O)Cc1ccccc1)C(=O)NCc1ccc(NC(=N)N)cc1 (stereo partly shown) [WX-532, hydrochloride]	ng/mL	3300

Proceed to the following item.
Query: concentration at 40 min; subject: N=C(N)Nc1ccc(CNC(=O)CNC(=O)[C@@H](CO)NS(=O)(=O)Cc2ccccc2)cc1 [WX-508, hydrochloride]
8300

====

# measurement_description: Oral bioavailability and plasma kinetics in mice (serum concentration)
# Type: in vivo, Balb/c mice
# test_context: mouse, 10 mg/kg i.v., time of sample collection 30
Structures can show the parent of a compound that is named as a salt.
recorded_metric: c in the serum 2nd analysis (µg/mL)
Give bare numbers, in µg/mL.

Some solved entries appear below for comparison.
compound	units_label	c in the serum 2nd analysis
N=C(N)Nc1ccc(CNC(=O)CNC(=O)C(CO)NS(=O)(=O)Cc2cccc([N+](=O)[O-])c2)cc1 (stereo not shown) [WX-C316, hydrochloride]	µg/mL	2.6
C[C@H](NC(=O)C(CO)NS(=O)(=O)Cc1ccccc1)C(=O)NCc1ccc(NC(=N)N)cc1 (stereo partly shown) [WX-532, hydrochloride]	µg/mL	11.2
N=C(N)Nc1ccc(CNC(=O)CNC(=O)C(CO)NS(=O)(=O)Cc2cccc(Cl)c2)cc1 (stereo not shown) [WX-C318, hydrochloride]	µg/mL	1.4

Proceed to the following item.
Query: c in the serum 2nd analysis; subject: N=C(N)Nc1ccc(CNC(=O)CNC(=O)[C@@H](CO)NS(=O)(=O)Cc2ccccc2)cc1 [WX-508, hydrochloride]
0.2

====

# Test system: Caco-2 cell monolayers
# measurement_description: Caco-assay: transport across Caco-2 cell monolayers
# Type: in vitro ADME, human
# test_context: 10 μg/ml apical, four hours; second value column
Counter-ions that a name gives are not always drawn.
Binarize % amount in the basolateral compartment at 0.2%; below is yes, at or above is no.

compound	system_name	classification
C[C@@H](C(=O)NCc1ccc(NC(=N)N)cc1)N(C)C(=O)[C@@H](CO)NS(=O)(=O)Cc1ccc(Cl)cc1	Caco-2 cell monolayers	no
C[C@H](NC(=O)C(CO)NS(=O)(=O)Cc1ccccc1)C(=O)NCc1ccc(NC(=N)N)cc1 (stereo partly drawn) [WX-532, hydrochloride]	Caco-2 cell monolayers	yes
N=C(N)Nc1ccc(CNC(=O)CNC(=O)C(CO)NC(=O)Nc2cccc(C(=O)O)c2)cc1 (stereo not drawn) [WX-C324, hydrochloride]	Caco-2 cell monolayers	yes
N=C(N)Nc1ccc(CNC(=O)CNC(=O)C(CO)NS(=O)(=O)Cc2cccc(Cl)c2)cc1 (stereo not drawn) [WX-C318, hydrochloride]	Caco-2 cell monolayers	no

State whether 0.2% exceeds % amount in the basolateral compartment recorded for N=C(N)Nc1ccc(CNC(=O)[C@H](CCc2ccccc2)NC(=O)C(CO)NS(=O)(=O)Cc2ccccc2)cc1 (stereo partly drawn) [WX-550, hydrochloride] .
no

State whether 0.2% exceeds % amount in the basolateral compartment recorded for N=C(N)Nc1ccc(CNC(=O)CNC(=O)[C@@H](CO)NS(=O)(=O)Cc2ccccc2)cc1 [WX-508, hydrochloride] .
yes

====

# Tested on: Caco-2 cell monolayers
# measurement_description: Caco-assay: transport across Caco-2 cell monolayers
# Type: in vitro ADME, human
# test_context: 10 μg/ml apical, four hours; third value column
# Procedure: Transport of the compounds WX-508, WXC-316, WXC-318, WXC-324, WXC-340, WX-532, WX-538, WX-550 and WX-582 across Caco-2 cell monolayers was investigated. In this experiment the bioavailability of the said compounds after oral administration was assessed. […] The transepithelial electric resistance (TEER) is measured before and after equilibration using a Milicell ERS meter which was connected to a pair of electrodes in order to ensure the integrity of the monolayers formed on the filters. […]
Where a name gives a salt, the structure may show the parent alone.
recorded_metric: % amount in the basolateral compartment (%)
Numbers only, in %.

Some solved entries appear below for comparison.
compound	system_name	quantitative_result
CN(CC(=O)NCc1ccc(NC(=N)N)cc1)C(=O)C(CO)NS(=O)(=O)Cc1ccccc1 (stereo not drawn)	Caco-2 cell monolayers	0.1
N=C(N)Nc1ccc(CNC(=O)CNC(=O)C(CO)NS(=O)(=O)Cc2cccc([N+](=O)[O-])c2)cc1 (stereo not drawn) [WX-C316, hydrochloride]	Caco-2 cell monolayers	3.6
N=C(N)Nc1ccc(CNC(=O)CNC(=O)C(CO)NC(=O)Nc2cccc(C(=O)O)c2)cc1 (stereo not drawn) [WX-C324, hydrochloride]	Caco-2 cell monolayers	2.0

Fill in % amount in the basolateral compartment for each of the 6 compounds listed.
1. N=C(N)Nc1ccc(CNC(=O)[C@H](CCc2ccccc2)NC(=O)C(CO)NS(=O)(=O)Cc2ccccc2)cc1 (stereo partly drawn) [WX-550, hydrochloride]
2. C[C@H](NC(=O)C(CO)NS(=O)(=O)Cc1ccccc1)C(=O)NCc1ccc(NC(=N)N)cc1 (stereo partly drawn) [WX-532, hydrochloride]
3. C[C@@H](C(=O)NCc1ccc(NC(=N)N)cc1)N(C)C(=O)[C@@H](CO)NS(=O)(=O)Cc1ccc(Cl)cc1
4. N=C(N)Nc1ccc(CNC(=O)CNC(=O)[C@@H](CO)NS(=O)(=O)Cc2ccccc2)cc1 [WX-508, hydrochloride]
5. N=C(N)Nc1ccc(CNC(=O)CNC(=O)C(CO)NS(=O)(=O)Cc2cccc(Cl)c2)cc1 (stereo not drawn) [WX-C318, hydrochloride]
6. N=C(N)Nc1ccc(CNC(=O)CNC(=O)C(CO)NS(=O)(=O)Cc2ccc(Cl)cc2)cc1 (stereo not drawn) [WX-C340, hydrochloride]

0.6
0
5.2
0.7
4.5
0.1

====

# System: Caco-2 cell monolayers
# measurement_description: Caco-assay: transport across Caco-2 cell monolayers
# Format: in vitro ADME, human
# test_context: first series, second value
# Method: Transport of the compounds WX-508, WXC-316, WXC-318, WXC-324, WXC-340, WX-532, WX-538, WX-550 and WX-582 across Caco-2 cell monolayers was investigated. In this experiment the bioavailability of the said compounds after oral administration was assessed. […] The transepithelial electric resistance (TEER) is measured before and after equilibration using a Milicell ERS meter which was connected to a pair of electrodes in order to ensure the integrity of the monolayers formed on the filters. […]
Counter-ions that a name gives are not always drawn.
recorded_metric: Caco-2 assay % basolateral (%)
Answers are plain numbers, in %.

Some solved entries appear below for comparison.
compound	quantitative_result
N=C(N)Nc1ccc(CNC(=O)[C@H](CCc2ccccc2)NC(=O)C(CO)NS(=O)(=O)Cc2ccccc2)cc1 (stereo partly drawn) [WX-550, hydrochloride]	3.1
N=C(N)Nc1ccc(CNC(=O)CNC(=O)C(CO)NS(=O)(=O)Cc2cccc([N+](=O)[O-])c2)cc1 (stereo not drawn) [WX-C316, hydrochloride]	0.2
N=C(N)Nc1ccc(CNC(=O)CNC(=O)C(CO)NS(=O)(=O)Cc2cccc(Cl)c2)cc1 (stereo not drawn) [WX-C318, hydrochloride]	1.0

Fill in Caco-2 assay % basolateral for each of the 5 compounds listed.
1. N=C(N)Nc1ccc(CNC(=O)CNC(=O)C(CO)NS(=O)(=O)Cc2ccc(Cl)cc2)cc1 (stereo not drawn) [WX-C340, hydrochloride]
2. N=C(N)Nc1ccc(CNC(=O)CNC(=O)C(CO)NC(=O)Nc2cccc(C(=O)O)c2)cc1 (stereo not drawn) [WX-C324, hydrochloride]
3. C[C@@H](C(=O)NCc1ccc(NC(=N)N)cc1)N(C)C(=O)[C@@H](CO)NS(=O)(=O)Cc1ccc(Cl)cc1 [WX-582]
4. CN(CC(=O)NCc1ccc(NC(=N)N)cc1)C(=O)C(CO)NS(=O)(=O)Cc1ccccc1 (stereo not drawn) [WX-538]
5. N=C(N)Nc1ccc(CNC(=O)CNC(=O)[C@@H](CO)NS(=O)(=O)Cc2ccccc2)cc1 [WX-508, hydrochloride]

1. 0.2
2. 0.1
3. 3.1
4. 0.2
5. 0.1
